# test-protocol: OD615 S. cerevisiae growth inhibition, permissive medium, pilot counter-assay, permissive growth control for S. cerevisiae lifespan shortening project (AID 705)
# condition-details: OD615, 24 h, at 10 µM, hits give high values
For each of the molecules below, state its growth inhibition.
Answers are plain numbers, in %.

The cases that follow already have their growth inhibition on record.
COc1ccc(OCC(O)CN2CCCCC2)cc1 (stereo unspecified); -7.21
CCSc1nnc(Cn2c(=O)sc3ccccc32)n1-c1ccccc1C; -2.14
O=C(NCCN1C(=O)C2C3C=CC(C3)C2C1=O)Nc1ccc(Br)cc1 (stereo unspecified); -9
COc1cc2c(c(O)c1OC)C(=O)C(OC)CCC2 (stereo unspecified); 0.06

# per-item lookup of growth inhibition; items listed below
1. CCOC(=O)N1CCC(c2cc(=O)n3[nH]c(-c4ccccc4)cc3n2)CC1
2. Cc1onc(-c2ccccc2Cl)c1C(=O)Nc1ccc(OCC(=O)N2CCOCC2)cc1
3. CCC(=O)Nc1ccc(S(=O)(=O)N2CCc3ccccc3C2)cc1
4. O=c1sc(N2CCN(c3ccccc3F)CC2)nc2ccsc12
5. O=C1Nc2cc(Cl)cnc2N2CCCC12 (stereo unspecified)

1. 2.9
2. 2.78
3. -7.58
4. -7.07
5. -2.57

Value sought for every listed molecule: growth inhibition.
1. Cc1cc(C)n(-c2nc3ccccc3nc2Nc2ccc(CC(=O)O)cc2)n1
2. CC1(C)CC2CC(C)(CN2C(=O)C23CCC(C)(C(=O)O2)C3(C)C)C1 (stereo unspecified)
3. Cc1cnc(NC(=O)c2ccc(-c3nc4ccccc4s3)o2)s1
4. O=C(c1ccccc1)c1ccc2nc(N3CCN(C(=O)c4ccco4)CC3)c3nncn3c2c1
5. CCCOc1ccc(NC(=O)c2c(-c3ccccc3)noc2C)cc1
6. CCOc1ccccc1NC(=O)C1CCN(S(=O)(=O)c2ccc(OC)c(OC)c2)CC1
7. CCOC(=O)C1CCCN(C(=O)c2cn(CC(C)C)c(=O)c3cc(OC)c(OC)cc23)C1 (stereo unspecified)
8. CCC1Oc2ccc(C)cc2N(CC(=O)N2CCN(c3ccc(F)cc3)CC2)C1=O (stereo unspecified)

1. 5.73
2. -6.75
3. -7.12
4. -3.47
5. -3.83
6. -4.97
7. -8.41
8. 5.46

Provide growth inhibition values for the following items, in order.
1. Cc1ccccc1S(=O)(=O)Cc1ccc(C(=O)N2CCN(C3CCCCC3)CC2)o1
2. CCOC(=O)CNC(=O)CSc1nnc(Cn2c(=O)sc3ccccc32)n1C
3. NC(=O)c1sc(=S)n(-c2ccc(Br)cc2)c1N
4. CC(C)OC(=O)c1nnc(Cc2ccc(Cl)cc2)o1
5. CCN(CCCNC(=O)Cn1cc2c(n1)CCCC2)c1cccc(C)c1
6. COc1ccc(N2CCC(CNC(=O)Nc3ccc(C)c(C)c3)C2)cc1 (stereo unspecified)
7. Cc1nc2ccccc2c2oc(C(=O)NC3CC3)cc12
8. CC(=O)Nc1nnc(SCc2cccc(F)c2)s1

1: -9.92; 2: -6.96; 3: -6.66; 4: -6.46; 5: -4.97; 6: -8.33; 7: -8; 8: -1.17

Would you be so kind as to report growth inhibition for each listed record?
1. COc1ccccc1N1CCN(C(=O)c2cc3c(=O)n(C)c4ccccc4c3n2C)CC1
2. COc1ccccc1-n1c2c(cc(C(=O)N3CCC(C)CC3)c1=O)C(=O)CC(C)(C)C2

1. -7.35
2. -21.2

Look up growth inhibition for the entries below, preserving their order.
1. CCCn1c(C(O)c2ccc(OCC)cc2)nc2ccccc21 (stereo unspecified)
2. COc1ccc(Cl)cc1N(CC(=O)Nc1ccc2c(c1)OCO2)S(C)(=O)=O
3. COc1ccc(-n2cnnc2)cc1
4. O=c1[nH]c2c(s1)C=Nc1ccccc1N2
5. CC(=NCCc1ccccc1)C1=C(O)CSC1=O
6. CC(C)n1c(C(O)c2ccc3c(c2)OCO3)nc2ccccc21 (stereo unspecified)

1. -8.12
2. -15.1
3. -1.44
4. -5.34
5. -3.27
6. -1.25

Go through the items and report each one's growth inhibition.
1. Nn1c(SCc2nc3ccccc3[nH]2)nnc1-c1cccnc1
2. O=C(Nc1ccc2c(c1)OCO2)c1ccncc1

[4.54, -10.6]

For each of the items listed, what is its growth inhibition?
1. COc1ccc(-c2nc(C#N)c(NC(C)C)o2)cc1
2. CCc1ccccc1NC1c2ccccc2C(=O)N1Cc1ccco1 (stereo unspecified)
3. CCN1CCN(c2cc(C)c3cc(NC(=O)Cc4ccc(OC)c(OC)c4)ccc3n2)CC1
4. CC(C)(C)c1ccc(NC(=O)NCc2ccco2)cc1

1: -4.08; 2: -4.26; 3: -15.9; 4: -8.65

Dear colleague, could you please provide growth inhibition for the molecules listed below?
1. COc1ccc(C2CC(=O)N3CN(c4ccc(C)c(Cl)c4)CSC3=C2C#N)cc1OC (stereo unspecified)
2. Nc1ccccc1-c1nnc(SCc2ccccc2F)[nH]c1=O
3. O=C(Cn1ncc2c(=O)oc3ccccc3c21)N(Cc1ccco1)C1CCCCC1
4. CCOC(=O)c1ccccc1NC(=O)CN(c1ccccc1OCC)S(C)(=O)=O
5. COc1ccc(S(=O)(=O)Cc2ccc(C(=O)NC3CCCC3)o2)cc1

1: 2.02; 2: -8.6; 3: -4.29; 4: 2.85; 5: -0.76

Fill in growth inhibition for each of the 2 molecules listed.
1. COc1ccc(C(=O)N2CCN(C(=O)c3ccco3)CC2)cc1
2. Cc1ccc(Cn2c(CN3CC(C)OC(C)C3)nc3c2c(=O)n(C)c(=O)n3C)cc1 (stereo unspecified)

1: 1.98; 2: -5.45

meta.source: PubChem BioAssay
